Target: T1, Mouse His-GDF15: HIS-tagged mouse GDF15 (mouse, UniProt Q9Z0J7 189-303)
T1 construct: not shown: His tag
T1 sequence (looked up): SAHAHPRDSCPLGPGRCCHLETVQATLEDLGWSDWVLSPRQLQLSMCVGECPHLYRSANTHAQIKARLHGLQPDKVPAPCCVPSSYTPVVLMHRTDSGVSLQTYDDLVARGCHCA
Assay: Biacore SPR, IgG captured via anti-human Fc, GDF15 in flow
Classify: Met when koff is strictly less than 0.0005 s⁻¹; Not met when koff is not.

1. ABGDF15-F (antibody, human IgG1, lambda, V domains shown, captured through anti-human Fc in the Biacore assay) VH: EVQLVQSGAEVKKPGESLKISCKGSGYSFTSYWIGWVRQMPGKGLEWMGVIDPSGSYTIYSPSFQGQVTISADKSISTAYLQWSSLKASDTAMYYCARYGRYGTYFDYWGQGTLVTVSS VL: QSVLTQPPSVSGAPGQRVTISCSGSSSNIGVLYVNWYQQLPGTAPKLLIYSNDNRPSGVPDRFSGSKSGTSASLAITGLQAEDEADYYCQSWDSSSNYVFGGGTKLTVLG	Not met
2. ABGDF15-B (antibody, human IgG1, lambda, V domains shown, captured through anti-human Fc in the Biacore assay) VH: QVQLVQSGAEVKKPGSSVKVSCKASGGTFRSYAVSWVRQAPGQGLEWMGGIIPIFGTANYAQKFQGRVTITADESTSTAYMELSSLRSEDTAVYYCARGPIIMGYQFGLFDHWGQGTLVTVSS VL: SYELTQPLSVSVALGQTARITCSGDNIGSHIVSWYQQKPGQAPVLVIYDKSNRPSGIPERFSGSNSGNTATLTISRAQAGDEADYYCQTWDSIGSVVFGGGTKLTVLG	Not met
3. ABGDF15-E (antibody, human IgG1, lambda, V domains shown, captured through anti-human Fc in the Biacore assay) VH: EVQLVQSGAEVKKPGESLKISCKGSGYSFTSYWIGWVRQMPGKGLEWMGVIDPGGSYTIYSPSFQGQVTISADKSISTAYLQWSSLKASDTAMYYCARYGRYGTYFDYWGQGTLVTVSS VL: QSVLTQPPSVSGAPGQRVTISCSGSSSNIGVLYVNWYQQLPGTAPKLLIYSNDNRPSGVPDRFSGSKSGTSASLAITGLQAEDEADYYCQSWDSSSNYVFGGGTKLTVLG	Not met
4. ABGDF15-A (antibody, human IgG1, kappa, V domains shown, captured through anti-human Fc in the Biacore assay) VH: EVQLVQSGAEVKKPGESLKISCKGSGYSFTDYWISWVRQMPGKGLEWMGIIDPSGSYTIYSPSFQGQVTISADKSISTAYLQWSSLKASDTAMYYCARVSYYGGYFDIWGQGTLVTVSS VL: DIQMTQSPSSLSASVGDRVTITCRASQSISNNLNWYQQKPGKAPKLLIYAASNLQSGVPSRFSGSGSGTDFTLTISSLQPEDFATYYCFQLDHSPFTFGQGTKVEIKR	Not met
5. ABGDF15-G (antibody, human IgG1, kappa, V domains shown, captured through anti-human Fc in the Biacore assay) VH: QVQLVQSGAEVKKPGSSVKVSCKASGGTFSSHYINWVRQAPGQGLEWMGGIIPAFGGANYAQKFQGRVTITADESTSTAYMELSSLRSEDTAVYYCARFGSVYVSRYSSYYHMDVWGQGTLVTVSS VL: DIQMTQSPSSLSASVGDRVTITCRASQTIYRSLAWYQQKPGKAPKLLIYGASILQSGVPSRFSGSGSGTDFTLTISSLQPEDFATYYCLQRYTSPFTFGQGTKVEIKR	Met
